For each of the compounds below, state its IC50.
System: Mycobacterium tuberculosis
Experiment: Antitubercular activity against Mycobacterium tuberculosis assessed as growth inhibition […]
Type: functional, organism-based
Details: read-out: log(1/IC50) (converted)
Please state the figure in µM; there is no need to write the unit.

Query: Which IC50 is reported for this compound? `O=C(c1ccccc1)N1CCN(Cc2ccccc2)CC1`
Result: 31.6

Query: Would you kindly repeat that for `CC(C)(C)c1ccc(C(=O)N2CCN(c3cccc(C(F)(F)F)c3)CC2)cc1` ?
Result: 100

Query: Would you kindly repeat that for `Cc1ccc(C(=O)N2CCN(c3cccc(Cl)c3)CC2)cc1` ?
Result: 3.09

Query: Would you kindly repeat that for `Cc1cccc(C(=O)N2CCN(c3cccc(Cl)c3)CC2)c1` ?
Result: 9.33

Query: Would you kindly repeat that for `Cc1ccc(N2CCN(C(=O)c3ccc(C(C)(C)C)cc3)CC2)cc1Cl` ?
Result: 100

Query: Would you kindly repeat that for `Cc1ccc(C(=O)N2CCN(c3ccccc3)CC2)cc1` ?
Result: 16.6

Query: Would you kindly repeat that for `O=C(c1cccc(Cl)c1)N1CCC(Cc2ccccc2)CC1` ?
Result: 7.76

Query: Would you kindly repeat that for `O=C(c1ccc2[nH]ccc2c1)N1CCN(C(c2ccc(F)cc2)c2ccc(F)cc2)CC1` ?
Result: 1.05

Query: Would you kindly repeat that for `Cc1ccc(C(=O)N2CCN(c3cccc(C(F)(F)F)c3)CC2)cc1C` ?
Result: 1.86

Query: Would you kindly repeat that for `O=C(c1ccc(Cl)c(Cl)c1)N1CCN(c2ccccc2)CC1` ?
Result: 17.8

Query: Would you kindly repeat that for `O=C(c1ccccc1F)N1CCN(c2cccc(Cl)c2)CC1` ?
Result: 13.8

Query: Would you kindly repeat that for `Cc1ccc(C(=O)N2CCC(Cc3ccccc3)CC2)cc1` ?
Result: 5.13
